MEASURED ON: feline IL-31 15H05 mutant (Feline_IL31_15H05 mutant) (feline)
Sequence (chain, as listed by the source mutant limits assumed, form in doubt): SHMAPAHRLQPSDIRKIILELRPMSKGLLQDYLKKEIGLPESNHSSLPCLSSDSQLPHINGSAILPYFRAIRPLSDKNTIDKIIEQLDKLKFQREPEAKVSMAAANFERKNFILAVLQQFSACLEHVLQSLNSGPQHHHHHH
METHOD DESCRIPTION: indirect ELISA, coated IL-31

{"columns": ["BINDER", "Binding (ELISA OD)"],
 "data": [
  ["ZIL154 (antibody, V domains shown) VH: EVHLVESGGDLVKPWGSLRLSCVASGFTFSDRGMSWVRQSPGKGLQWVAYIRYDGSRTDYADAVEGRFTISRDNAKNTLYLQMNSLRAEDTAVYYCARWDGSSFDYWGQGTLVTVSS VL: DIVVTQTPLSLSVSPGETASFSCKASQSLLHSDGNTYLDWFRQKPGQSPQRLIYKVSNRDPGVPDRFSGSGSGTDFTLRISGVEADDAGLYYCMQAIHFPLTFGAGTKVELKR", 1.38],
  ["ZIL171 (antibody, V domains shown) VH: EVQLVESGGDLVKPAGSLRLSCVASGFTFRTYVMNWVRQAPGKGLQWVASINGGGSSPTYADAVRGRFTVSRDNAQNSLFLQMNSLRAEDTAIYFCVVSMVGPFDYWGHGTLVTVSS VL: SSVLTQPPSVSVSLGQTATISCSGKSLSYYYAQWFQQKAGQAPVLVIYKDTERPSGIPDRFSGSSSGNTHTLTISGARAEDEADYYCESAVSSDTIVFGGGTHLTVLR", 0.93],
  ["ZIL159 (antibody, V domains shown) VH: EVQLVESGGDLVKPAGSLRLSCVASGFTFSSYVMTWVRQAPGKGLQWVAGINSEGSRTAYADAVKGRFTISRDNAKNTLYLQIDSLRAEDTAIYYCATGDIVATGTSYWGQGTLVTVSS VL: SNVLTQPPSVSVSLGQTATISCSGETLNRFYTQWFQQKAGQAPVLVIYKDTERPSGIPDRFSGSSSGNIHTLTISGARAEDEAAYYCKSAVSIDVGVFGGGTHLTVFR", 1.31],
  ["ZIL69 (antibody, V domains shown) VH: EVQLVESGGDLVKPAGSLRLSCVASGFTFSSYAMKWVRQAPGKGLQWVATINNDGTRTGYADAVRGRFTISKDNAKNTLYLQMDSLRADDTAVYYCTKGNAESGCTGDHCPPYWGQGTLVTVSS VL: SSVLTQPPSVSVSLGQTATISCSGESLNKYYAQWFQQKAGQAPVLVIYKDTERPSGIPDRFSGSSAGNTHTLTISGARAEDEADYYCESAVSSETNVFGSGTQLTVLR", 0.92],
  ["ZIL94 (antibody, V domains shown) VH: EVQLVDSGGDLVKPGGSLRLSCVASGFTFSTYFMSWVRQAPGRGLQWVALISSDGSGTYYADAVKGRFTISRDNAKNTLYLQMNSLRAEDTAMYYCAIFWRAFNDWGQGTLVTVSS VL: QTVVIQEPSLSVSPGGTVTLTCGLNSGSVSTSNYPGWYQQTRGRTPRTIIYDTGSRPSGVPNRFSGSISGNKAALTITGAQPEDEADYYCSLYTDSDILVFGGGTHLTVLR", 1.3]
]}
